SUBJECT_OF_TEST: Mu-type opioid receptor (Mus musculus)
Sequence (P42866 whole entry): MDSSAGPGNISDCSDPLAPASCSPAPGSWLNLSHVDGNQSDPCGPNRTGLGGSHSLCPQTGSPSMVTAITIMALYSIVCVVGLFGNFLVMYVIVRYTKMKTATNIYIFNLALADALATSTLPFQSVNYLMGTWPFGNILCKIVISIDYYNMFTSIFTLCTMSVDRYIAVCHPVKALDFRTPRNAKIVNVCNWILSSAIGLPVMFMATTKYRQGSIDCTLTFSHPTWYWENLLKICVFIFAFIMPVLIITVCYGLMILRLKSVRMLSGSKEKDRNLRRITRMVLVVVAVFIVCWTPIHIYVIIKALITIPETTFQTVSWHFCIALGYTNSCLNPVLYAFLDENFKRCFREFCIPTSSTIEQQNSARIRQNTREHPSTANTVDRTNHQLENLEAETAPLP
PROTOCOL_DETAILS: Displacement of [3H]DAMGO from mu opioid receptor in CD1 mouse whole brain minus cerebellum membranes by liquid scintillation counting
METRIC: Ki (µM)
Enter your answer as a number in µM; do not include the unit.

Illustrative cases are given below, each with its answer.
> print(dat)
                                   molecule  quantitative.result
1  COc1ccc(-c2cc(=O)c3c(O)c(OC)c(O)cc3o2)cc1OC [EUPATILIN]                   28
2  COc1c(OC)c(O)c2c(=O)cc(-c3ccc(O)cc3)oc2c1OC [XANTHOMICROL]                 0.83
3  COc1ccc(-c2cc(=O)c3c(OC)c(OC)c(OC)c(OC)c3o2)cc1 [TANGERETIN]                 16.3
4  C=CC(C)(O)CC[C@@]1(C)[C@H](C)CC[C@@]2(C)C(C)=CC(=O)C[C@H]12 (stereo partly drawn)                 40.5

Then there is this molecule:
Record COc1c(OC)c(O)c2c(=O)cc(-c3ccc(O)c(O)c3)oc2c1OC [SIDERITIFLAVONE] . Reported Ki: 18.5

The origin of these recorded values is ChEMBL document CHEMBL3392994.
